Cited source: patent US20130217664A1

target: human TYK2 (Homo sapiens); construct: catalytic domain (amino acids 871-1187; catalog number 08-147); experiment: TYK2 inhibition assay; conditions: recombinant human TYK2 catalytic domain, polyGT substrate
Sequence (P29597 871-1187): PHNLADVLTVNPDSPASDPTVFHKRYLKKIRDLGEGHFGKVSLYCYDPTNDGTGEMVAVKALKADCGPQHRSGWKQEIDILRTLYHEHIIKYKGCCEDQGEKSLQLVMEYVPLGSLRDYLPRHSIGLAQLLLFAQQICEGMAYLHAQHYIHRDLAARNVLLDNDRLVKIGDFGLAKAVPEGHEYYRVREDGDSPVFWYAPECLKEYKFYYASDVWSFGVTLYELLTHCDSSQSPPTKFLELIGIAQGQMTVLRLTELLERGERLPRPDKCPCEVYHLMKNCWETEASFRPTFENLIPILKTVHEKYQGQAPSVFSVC
Assign IC50 to each entry below.

Solved cases below.
> print(dat)
                                   molecule                        tgt  property.measured  endpoint.value
1  CCc1cc(-c2nnc(C)o2)ccc1N(C)c1cc2c(cn1)ncn2C  human TYK2 (Homo sapiens)               IC50  0.01 to 100 nM
2           CCc1ccccc1N(CC)c1cc2c(cn1)ncn2C  human TYK2 (Homo sapiens)               IC50  0.01 to 100 nM
3  CCc1cc(-c2cnn(CC#N)c2)ccc1N(C)c1cc2c(cn1)ncn2C  human TYK2 (Homo sapiens)               IC50   101 to 500 nM
4  CCc1cc(-c2cncnc2)ccc1N(C)c1cc2c(cn1)ncn2C  human TYK2 (Homo sapiens)               IC50  0.01 to 100 nM
5            CN(c1cc2c(cn1)ncn2C)c1ccccc1Cl  human TYK2 (Homo sapiens)               IC50  501 to 1000 nM
6  CN(c1cc2c(cn1)ncn2C)c1c(F)cc(CNS(C)(=O)=O)cc1F  human TYK2 (Homo sapiens)               IC50   101 to 500 nM
7  CCc1cc(CNS(=O)(=O)N2CC(F)(F)C2)ccc1N(C)c1cc2c(cn1)ncn2C  human TYK2 (Homo sapiens)               IC50   101 to 500 nM
8        CN(c1cc2c(cn1)ncn2C)c1ccccc1OC(F)F  human TYK2 (Homo sapiens)               IC50  501 to 1000 nM

// for each molecule in input: emit IC50
1. CN(c1ccc(CC#N)cc1)c1cc2c(cn1)ncn2C
2. CCc1cc(CNC(C)=O)ccc1N(C)c1cc2c(cn1)ncn2C
3. CCc1cc(C(C#N)N2CC(C)(C)C2)ccc1N(C)c1cc2c(cn1)ncn2C (stereo not shown)
4. CCc1cc(C2CN(CC#N)C2)ccc1N(C)c1cc2c(cn1)ncn2C

Data returned:
1. 101 to 500 nM
2. 101 to 500 nM
3. 0.01 to 100 nM
4. 101 to 500 nM

// for each molecule in input: emit IC50
1. Cc1cc(OCc2ccc(C#N)nc2)ccc1N(C)c1cc2c(cn1)ncn2C
2. CCc1cc(CNC)ccc1N(C)c1cc2c(cn1)ncn2C
3. Cc1cc(-c2cnn(C)c2)ccc1N(C)c1cc2c(cn1)ncn2C
4. CCc1cc(C(=O)NCCC#N)ccc1N(C)c1cc2c(cn1)ncn2C

Data returned:
["> 1000 nM", "> 1000 nM", "101 to 500 nM", "501 to 1000 nM"]

// for each molecule in input: emit IC50
1. CCc1cc(CN2CCCS2(=O)=O)ccc1N(C)c1cc2c(cn1)ncn2C
2. COc1cc(-c2c(C)nn(C)c2C)ncc1N(C)c1cc2c(cn1)ncn2C
3. CCc1cc(C(=O)NCc2ccccc2)ccc1N(C)c1cc2c(cn1)ncn2C
4. COc1cc(C2CCN(S(C)(=O)=O)CC2)ncc1N(C)c1cc2c(cn1)ncn2C
5. CCCn1cc(-c2ccc(N(C)c3cc4c(cn3)ncn4C)c(CC)c2)cn1
6. CNC(=O)c1ccc(N(C)c2cc3c(cn2)ncn3C)c(C)c1
7. CCc1cc(CN(C)S(C)(=O)=O)ncc1N(C)c1cc2c(cn1)ncn2C
8. CCc1cc(CNCC(F)F)ccc1N(C)c1cc2c(cn1)ncn2C

Data returned:
101 to 500 nM
> 1000 nM
501 to 1000 nM
> 1000 nM
0.01 to 100 nM
> 1000 nM
0.01 to 100 nM
101 to 500 nM

// for each molecule in input: emit IC50
1. CN(c1cc2c(cn1)ncn2C)c1c(F)cc(C#N)cc1F
2. CCc1cc(C2CN(S(=O)(=O)CC(F)(F)F)C2)ccc1N(C)c1cc2c(cn1)ncn2C
3. CCOc1ccc(N(C)c2cc3c(cn2)ncn3C)c(CC)c1
4. CCc1cc(-c2noc(CCC#N)n2)ccc1N(C)c1cc2c(cn1)ncn2C
5. CCc1cc(-c2cncc(S(C)(=O)=O)c2)ccc1N(C)c1cc2c(cn1)ncn2C
6. CCc1cc(CNS(C)(=O)=O)ccc1N(C)c1cc2c(cn1)ncn2C
7. COC(=O)NCc1ccc(N(C)c2cc3c(cn2)ncn3C)c(F)c1
8. CN(c1cc2c(cn1)ncn2C)c1cc(C2CC2)nn1C

Data returned:
["> 1000 nM", "0.01 to 100 nM", "0.01 to 100 nM", "0.01 to 100 nM", "501 to 1000 nM", "0.01 to 100 nM", "101 to 500 nM", "> 1000 nM"]

###

Assign IC50 to each entry below.
molecular target: human JAK1 (Homo sapiens); construct: catalytic domain, amino acids 866-1154; catalog number PV4774; experiment: JAK1 inhibition assay (polyGT substrate / Ulight-JAK1 peptide); settings: recombinant human JAK1 catalytic domain; polyGT or Ulight-JAK1 peptide assay

> print(dat)
                                   molecule  endpoint.value
1  CN(c1ccc(OCc2ccccc2)cc1)c1cc2c(cn1)ncn2C [Compound 14]       > 1000 nM
2  CCN(c1ccc2sc(C)nc2c1)c1cc2c(cn1)ncn2C [Compound 10]       > 1000 nM
3  CCc1cc(C2CN(S(=O)(=O)CC#N)C2)ccc1N(C)c1cc2c(cn1)ncn2C [Compound 353]  0.01 to 100 nM
4  CCc1cc(-c2cnccn2)ccc1N(C)c1cc2c(cn1)ncn2C [Compound 144]  0.01 to 100 nM
5  CCc1cc(CN2CC3(COC3)C2)ccc1N(C)c1cc2c(cn1)ncn2C [Compound 419]   101 to 500 nM
6  CCc1cc(-c2cnn(Cc3ccc(F)cc3)c2)ccc1N(C)c1cc2c(cn1)ncn2C [Compound 238]  0.01 to 100 nM
7  CCc1cc(C(C#N)N2CCN(S(C)(=O)=O)CC2)ccc1N(C)c1cc2c(cn1)ncn2C (stereo not shown) [Compound 390]  0.01 to 100 nM
8  CCc1cc(N2CC(C(=O)OC)C2)ncc1N(C)c1cc2c(cn1)ncn2C [Compound 399]  0.01 to 100 nM

// for each molecule in input: emit IC50
1. CCc1cc(C2CCOCC2)ccc1N(C)c1cc2c(cn1)ncn2C [Compound 186]
2. Cc1c(OCCCC#N)cccc1N(C)c1cc2c(cn1)ncn2C [Compound 66]
3. COC(=O)c1ccc(N(C)c2cc3c(cn2)ncn3C)c(C)c1 [Compound 27]
4. Cc1cc(C#N)ccc1N(C)c1cc2c(cn1)ncn2C [Compound 31]
5. CCc1cc(-c2cnn(C)c2)ncc1N(C)c1cc2c(cn1)ncn2C [Compound 280]
6. Cc1ccc(OCC#N)cc1N(C)c1cc2c(cn1)ncn2C [Compound 57]
7. CCN(c1ccc2c(ccn2C)c1)c1cc2c(cn1)ncn2C [Compound 8]

Data returned:
1. 0.01 to 100 nM
2. 101 to 500 nM
3. 101 to 500 nM
4. 0.01 to 100 nM
5. 0.01 to 100 nM
6. 0.01 to 100 nM
7. > 1000 nM

// for each molecule in input: emit IC50
1. CCc1cc(C2CCN(C(=O)CC#N)CC2)ccc1N(C)c1cc2c(cn1)ncn2C [Compound 224]
2. Cc1cc(Oc2ccc(C#N)nc2)ccc1N(C)c1cc2c(cn1)ncn2C [Compound 88]
3. CCc1cc(-c2ccccc2)ccc1N(C)c1cc2c(cn1)ncn2C [Compound 164]
4. Cc1cc(-c2cncnc2)ccc1N(C)c1cc2c(cn1)ncn2C [Compound 72]

Data returned:
0.01 to 100 nM
101 to 500 nM
0.01 to 100 nM
101 to 500 nM

###

molecular target: human JAK1 (Homo sapiens, UniProt P23458); construct: catalytic domain, amino acids 866-1154; catalog number PV4774; assay: JAK1 inhibition assay (polyGT substrate / Ulight-JAK1 peptide); settings: recombinant human JAK1 catalytic domain; polyGT or Ulight-JAK1 peptide assay
Sequence (P23458 866-1154): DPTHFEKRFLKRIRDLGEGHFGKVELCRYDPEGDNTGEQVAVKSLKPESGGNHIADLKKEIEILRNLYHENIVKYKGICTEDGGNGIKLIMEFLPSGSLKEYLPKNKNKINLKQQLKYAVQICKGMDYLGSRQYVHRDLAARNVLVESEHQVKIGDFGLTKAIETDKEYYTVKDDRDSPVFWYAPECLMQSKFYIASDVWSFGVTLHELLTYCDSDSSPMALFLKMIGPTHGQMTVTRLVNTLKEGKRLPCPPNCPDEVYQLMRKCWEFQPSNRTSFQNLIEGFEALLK
PROPERTY_MEASURED: IC50

Solved cases below.
> print(dat)
                              smiles.string  endpoint.value
1        CCc1ccc(CO)cc1N(C)c1cc2c(cn1)ncn2C   101 to 500 nM
2  CCc1cc(-c2cnn(CC3(C)COC3)c2)ccc1N(C)c1cc2c(cn1)ncn2C  0.01 to 100 nM
3  CCc1cc(-c2cnn(CC(N)=O)c2)ccc1N(C)c1cc2c(cn1)ncn2C  0.01 to 100 nM
4  CCc1cc(CN2CCNC(=O)C2)ccc1N(C)c1cc2c(cn1)ncn2C  0.01 to 100 nM
5  CCc1cc(CN2CCN(C)CC2)ccc1N(C)c1cc2c(cn1)ncn2C   101 to 500 nM

// for each compound in input: emit IC50
1. COCCNC(=O)c1ccc(N(C)c2cc3c(cn2)ncn3C)c(C)c1
2. CCc1cn(CCC#N)nc1N(C)c1cc2c(cn1)ncn2C

Data returned:
1: > 1000 nM; 2: > 1000 nM

// for each compound in input: emit IC50
1. CN(c1cc2c(cn1)ncn2C)c1ccc(C2CN(S(=O)(=O)C(F)F)C2)cc1OC(F)F
2. CCc1cc(C2CCN(C(=O)COC)CC2)ccc1N(C)c1cc2c(cn1)ncn2C

Data returned:
1. 0.01 to 100 nM
2. 0.01 to 100 nM
